Measured GI50 of individual entries
- Test system: HCT-116
- protocol-details: NCI tumour cell line growth inhibition, 48 h
The source made the active and inactive calls. Rule as the data show it: active = GI50 up to about 1.1 µM and inactive = higher.

>  <compound>
Cc1ccc(C)c(NC(=O)/C(=N\N)C(c2cnc3ccc([N+](=O)[O-])cc3n2)[N+](=O)[O-])c1 (centres undefined)

>  <GI50>
> 100 µM (inactive)

$$$$
>  <compound>
CC1OC(OC2CCCc3c(O)c4c(c(O)c32)C(=O)c2ccccc2C4=O)CC(N)C1O (centres undefined)

>  <GI50>
1.72 µM (inactive)

$$$$
>  <compound>
O=C(CSCC(=O)N/N=C\c1ccc(F)cc1F)N/N=C\c1ccc(F)cc1F

>  <GI50>
> 100 µM (inactive)

$$$$
>  <compound>
COc1cc2c(SCCN(C)C)nc3ccccc3c2c2ccccc12

>  <GI50>
1.67 µM (inactive)

$$$$
>  <compound>
C[C@]12CC[C@@H]3c4ccc(OS(N)(=O)=O)cc4CC[C@H]3[C@@H]1CCC2=O [EMATE]

>  <GI50>
30.2 µM (inactive)

$$$$
>  <compound>
CC(C)CCCC(C)[C@H]1CC[C@H]2N/C(=N/c3ccccc3)CCC[C@]12C (some centres undefined)

>  <GI50>
2.28 µM (inactive)

$$$$
>  <compound>
COc1cc(C2c3cc4c(cc3OC(N3CCOCC3)C2C)OCO4)cc(OC)c1O (centres undefined)

>  <GI50>
4.13 µM (inactive)

$$$$
>  <compound>
CN(C)c1ccc(Cc2cc3c(O)ccc(O)c3cc(Cc3ccc(N(C)C)cc3)c2=O)cc1

>  <GI50>
11.7 µM (inactive)

$$$$
>  <compound>
Cc1ccc(CC(=O)Nc2ccc(NC(=O)CNC(=O)/C=C/c3ccc(-c4ccccc4)cc3)cc2C(=O)c2ccccc2)cc1

>  <GI50>
1.36 µM (inactive)

$$$$

###

- System: NCI-H23
- protocol-details: NCI tumour cell line growth inhibition, 48 h
Calls of active or inactive are those of the source. Rule as the data show it: active = GI50 up to about 1.1 µM and inactive = higher.

>  <compound>
CC(=O)O[C@H]1C[C@H]2[C@@H]([C@H](OC(C)=O)C[C@@H]3CC4(CC[C@@]32C)OOC2(CCCCC2)OO4)[C@@H]2CC[C@H]([C@H](C)CCC(N)=O)[C@@]12C

>  <GI50>
1 µM (active)

$$$$
>  <compound>
CN(C)CC/C(=N\Nc1c(F)c(F)c(F)c(F)c1F)c1ccccc1

>  <GI50>
77.1 µM (inactive)

$$$$
>  <compound>
O=[N+]([O-])c1cccc2nc3ccccc3c(NCCc3cccc[n+]3[O-])c12

>  <GI50>
< 0.0115 µM (active)

$$$$
>  <compound>
CCOC(=O)c1c2c(n(-c3ccc(OC)cc3)c1C)C(=O)C(=O)c1ccccc1-2

>  <GI50>
0.873 µM (active)

$$$$
>  <compound>
C/C=C(\C)C(=O)N1c2ccccc2CC1c1c(C)[nH]c2ccccc12 (stereo not given)

>  <GI50>
55.2 µM (inactive)

$$$$
>  <compound>
COC(=O)c1ccc(/C=N/c2ccc(S(N)(=O)=O)cc2)cc1

>  <GI50>
0.0188 µM (active)

$$$$
>  <compound>
COC(=O)Nc1nc2cc(NC(=O)c3ccc(I)cc3)ccc2[nH]1

>  <GI50>
> 100 µM (inactive)

$$$$
>  <compound>
Cc1cc2c(=Cc3ccc(N(C)C)cc3)c3ccccc3n2[n+]1C

>  <GI50>
0.497 µM (active)

$$$$
>  <compound>
O=C(C/C(=N/O)C(=O)NC1=C(Cl)C(=O)c2ccccc2C1=O)CC(c1ccccc1)c1c(O)c2ccccc2oc1=O (stereo not given)

>  <GI50>
3.63 µM (inactive)

$$$$
>  <compound>
CC12OC(=O)C(C#N)C1(C)C1C(=O)CCCC12 (stereo not given)

>  <GI50>
> 100 µM (inactive)

$$$$

###

- Test system: A549
- protocol-details: NCI tumour cell line growth inhibition, 48 h
Activity calls are given as the source filed them. Cut-off read from the data, not from the text of the source: active = GI50 up to about 1.1 µM and inactive = higher.
// reported GI50 per item
measure: GI50

>  <compound>
O=C(O)CCSC(=O)Nc1ccc(/N=N/c2ccccc2)cc1

>  <measure>
GI50

>  <measured>
> 100 µM (inactive)

$$$$
>  <compound>
CCOC(=O)C1=C(O)C(=O)c2cc(C)ccc2C1=O

>  <measure>
GI50

>  <measured>
39.4 µM (inactive)

$$$$
>  <compound>
Clc1ccc(Nc2nn3c(CCCCCCCCc4nnc5sc(Nc6ccc(Cl)cc6)nn45)nnc3s2)cc1

>  <measure>
GI50

>  <measured>
> 100 µM (inactive)

$$$$
>  <compound>
CN(N=O)C(=N)NC(=O)c1ccccc1

>  <measure>
GI50

>  <measured>
> 100 µM (inactive)

$$$$
>  <compound>
COc1ccc2ccc3oc(=O)c(C)cc3c2c1

>  <measure>
GI50

>  <measured>
> 100 µM (inactive)

$$$$
>  <compound>
O=C1C=CC(=O)c2c1cc([N+](=O)[O-])c1ccoc21

>  <measure>
GI50

>  <measured>
20.9 µM (inactive)

$$$$
>  <compound>
CCOC(=O)C1=C(O)C(=O)c2cc(OC)ccc2C1=O

>  <measure>
GI50

>  <measured>
96.2 µM (inactive)

$$$$
>  <compound>
CCOC(=O)[C@H]1Nc2ccc(Cl)cc2[C@H]2CCC[C@@H]12

>  <measure>
GI50

>  <measured>
88.3 µM (inactive)

$$$$
>  <compound>
Cn1c(=O)c2[nH]c(N/N=C3/SCC(=O)N3Cc3ccccc3)nc2n(C)c1=O

>  <measure>
GI50

>  <measured>
> 100 µM (inactive)

$$$$
>  <compound>
CN(C)CCNC(=O)c1cc(NC(=O)c2cc(NC(=O)CC/C=C3/[C@@H]4CC[C@H]3N=N4)cn2C)cn1C

>  <measure>
GI50

>  <measured>
> 100 µM (inactive)

$$$$
>  <compound>
COc1cc2c3c(c1OC)C(=O)C=C3N(S(=O)(=O)c1ccc(C)cc1)CC2

>  <measure>
GI50

>  <measured>
> 100 µM (inactive)

$$$$
>  <compound>
CC(=O)OC1C[C@H]2C(OC(=O)c3ccccc3)C3C4(OC(C)=O)COC4C[C@H](OC(C)=O)[C@@]3(C)C(OC(C)=O)[C@H](OC(C)=O)C(=C1C)C2(C)C (some centres not stated)

>  <measure>
GI50

>  <measured>
31.2 µM (inactive)

$$$$
>  <compound>
CCCN1CN(C(C(=O)N[C@@H]2C(=O)N3C2SC(C)(C)C3C(=O)O)c2ccccc2)CSC1=S (some centres not stated)

>  <measure>
GI50

>  <measured>
> 100 µM (inactive)

$$$$
>  <compound>
CN1C(=O)c2cccc3c([N+](=O)[O-])ccc(c23)C1=O

>  <measure>
GI50

>  <measured>
12.7 µM (inactive)

$$$$
>  <compound>
O=C1CCC(=O)C12CCc1cccc(O)c12

>  <measure>
GI50

>  <measured>
> 100 µM (inactive)

$$$$
>  <compound>
Nc1ncnc2c1ccn2C1OC2COP(=O)(O)OC2C1O (configuration not stated)

>  <measure>
GI50

>  <measured>
0.365 µM (active)

$$$$
>  <compound>
O=C1OC2C(O)COC2(O)C1(O)C(C[N+](=O)[O-])c1ccc(Cl)cc1 (configuration not stated)

>  <measure>
GI50

>  <measured>
16.5 µM (inactive)

$$$$
>  <compound>
Cc1c2ccncc2c(C)c2c1[nH]c1ccc(Oc3ccccc3)cc12

>  <measure>
GI50

>  <measured>
2.25 µM (inactive)

$$$$
>  <compound>
COc1ccc(C2Oc3c(cccc3OC)C=C2[N+](=O)[O-])cc1OC (configuration not stated)

>  <measure>
GI50

>  <measured>
14.7 µM (inactive)

$$$$
>  <compound>
COc1ccc(-n2sc3ncc(C)cc3c2=O)cc1

>  <measure>
GI50

>  <measured>
20.7 µM (inactive)

$$$$
>  <compound>
COc1ccc2cc3[n+](cc2c1O)CCc1cc2c(cc1-3)OCO2 [BERBERRUBINE CHLORIDE]

>  <measure>
GI50

>  <measured>
96.6 µM (inactive)

$$$$
>  <compound>
Cc1cc(=O)oc2cc(OCC(O)COC(C)C)ccc12 (configuration not stated)

>  <measure>
GI50

>  <measured>
> 100 µM (inactive)

$$$$
>  <compound>
CC(=O)NNc1nc(C)c(C(/C=C/c2cccc([N+](=O)[O-])c2)=N/NC(=S)NN)s1

>  <measure>
GI50

>  <measured>
> 100 µM (inactive)

$$$$
>  <compound>
Cc1ccc(/C=C2/N/C(=N\N=C/C(O)C(O)C(O)CO)NC2=O)cc1 (configuration not stated)

>  <measure>
GI50

>  <measured>
> 100 µM (inactive)

$$$$
>  <compound>
COC(=O)[C@H](COC(=O)/C=C/c1ccc(OC(C)=O)c(OC(C)=O)c1)NC(=O)/C=C/c1ccc(OC(C)=O)c(OC(C)=O)c1

>  <measure>
GI50

>  <measured>
30.7 µM (inactive)

$$$$
>  <compound>
CC(=O)OI1NC(=O)c2ccccc21

>  <measure>
GI50

>  <measured>
> 100 µM (inactive)

$$$$
>  <compound>
O=C1C(CO)=C[C@@H](O)[C@H]2O[C@@H]12 [EPOXYDON]

>  <measure>
GI50

>  <measured>
77.3 µM (inactive)

$$$$
>  <compound>
CC1CC(N2CCOCC2)=Nc2ccccc2N1C (configuration not stated)

>  <measure>
GI50

>  <measured>
> 100 µM (inactive)

$$$$
>  <compound>
Nc1ccc(C2=Nc3ccccc3SC(c3ccccc3O)C2)cc1 (configuration not stated)

>  <measure>
GI50

>  <measured>
51.2 µM (inactive)

$$$$
>  <compound>
O=C1CCCNn2c(nc3ncccc3c2=O)N1

>  <measure>
GI50

>  <measured>
> 100 µM (inactive)

$$$$
>  <compound>
CC(C)(C)OC(=O)NC(Cc1ccc(OC(C)(C)C)cc1)C(=O)N[C@H]1CC[C@H](C(=O)O)C1 (some centres not stated)

>  <measure>
GI50

>  <measured>
> 100 µM (inactive)

$$$$
>  <compound>
NC(=O)C(=Cc1ccc(CP(=O)(O)O)cc1)C(N)=O

>  <measure>
GI50

>  <measured>
> 100 µM (inactive)

$$$$
>  <compound>
O=C(O)CNCc1c2ccccc2[n+]([O-])c2ccccc12

>  <measure>
GI50

>  <measured>
> 100 µM (inactive)

$$$$
>  <compound>
C[C@]12CC[C@H]3[C@@H](CC[C@]4(O)C[C@@H](O)CC[C@]34C=O)[C@@]1(O)CC[C@@H]2C1=CC(=O)OC1 [STROPHANTHIDIN]

>  <measure>
GI50

>  <measured>
0.159 µM (active)

$$$$
>  <compound>
CN(C)c1ccc(Cc2cc3c(O)ccc(O)c3cc(Cc3ccc(N(C)C)cc3)c2=O)cc1

>  <measure>
GI50

>  <measured>
30.5 µM (inactive)

$$$$
>  <compound>
Cc1ccc2nc(NC(=O)C(=O)CC(=O)c3cccc4ccccc34)sc2c1

>  <measure>
GI50

>  <measured>
33.6 µM (inactive)

$$$$
>  <compound>
CCC1NCC(=O)c2c1[nH]c1ccccc21 (configuration not stated)

>  <measure>
GI50

>  <measured>
> 100 µM (inactive)

$$$$
>  <compound>
C=CCNC(=S)N/C=C(\C(=O)OCC)C(=O)C(=O)OCC

>  <measure>
GI50

>  <measured>
> 100 µM (inactive)

$$$$
>  <compound>
Cc1c(C(=O)CSc2nc3cc([N+](=O)[O-])ccc3[nH]2)c(=O)n(-c2ccccc2)n1C

>  <measure>
GI50

>  <measured>
> 100 µM (inactive)

$$$$
>  <compound>
NC(CCSC(F)F)C(=O)O (configuration not stated)

>  <measure>
GI50

>  <measured>
> 100 µM (inactive)

$$$$
>  <compound>
COC(=O)c1cnn2c1ccc1ccccc12

>  <measure>
GI50

>  <measured>
> 100 µM (inactive)

$$$$
>  <compound>
O=[N+]([O-])c1cccc2nc3ccccc3c(NCCc3cccc[n+]3[O-])c12

>  <measure>
GI50

>  <measured>
< 0.0159 µM (active)

$$$$

All figures here come from ChEMBL document CHEMBL1201862.
